test system: SF-295; assay: Antiproliferative activity against human SF-295 cells assessed as cell growth inhibition at 10 uM incubated for 48 hrs by SRB assay relative to control; assay type: functional; settings: read-out: GI
REPORTED_PROPERTY: inhibition of growth at 10 µM

smi=Cc1nc2c(cnn2-c2ccccc2)c(=O)n1-c1ccc(NC(=O)c2ccccc2)cc1 value=46.5%
smi=Cc1nc2c(cnn2-c2ccccc2)c(=O)n1-c1ccc(N2C(=O)C=CC2=O)cc1 value="< 15%"
smi=CC(=O)Nc1ccc(-n2c(C)nc3c(cnn3-c3ccccc3)c2=O)cc1 value=36.5%
smi=Cc1nc2c(cnn2-c2ccccc2)c(=O)n1-c1ccc(NC(=O)c2ccc(F)cc2)cc1 value=60.4%
smi=Cc1nc2c(cnn2-c2ccccc2)c(=O)n1-c1ccc(NC(=O)c2ccc([N+](=O)[O-])cc2)cc1 value=56.3%
smi=Cc1nc2c(cnn2-c2ccccc2)c(=O)n1-c1ccc(NC(=O)c2ccc(Cl)cc2)cc1 value=45.9%
smi=Cc1nc2c(cnn2-c2ccccc2)c(=O)n1-c1ccc(N)cc1 value=27.1%
smi=Cc1nc2c(cnn2-c2ccccc2)c(=O)n1-c1ccc(NC(=O)c2ccco2)cc1 value=15.3%
smi=Cc1ccc(C(=O)Nc2ccc(-n3c(C)nc4c(cnn4-c4ccccc4)c3=O)cc2)cc1 value=49.4%
smi=Cc1nc2c(cnn2-c2ccccc2)c(=O)n1-c1ccc(/N=C2\C(=O)Nc3ccccc32)cc1 value=24.7%
smi=Cc1nc2c(cnn2-c2ccccc2)c(=O)n1-c1ccc(N2C(=O)c3ccccc3C2=O)cc1 value="< 15%"
smi=COc1ccc(/C=C/C(=O)c2ccc(-n3c(C)nc4c(cnn4-c4ccccc4)c3=O)cc2)cc1 value=34.5%

====

tested on: RPMI-8226; test: Antiproliferative activity against human RPMI-8226 cells assessed as cell growth inhibition at 10 uM incubated for 48 hrs by SRB assay relative to control; type: functional; conditions: read-out: GI
REPORTED_PROPERTY: inhibition of growth at 10 µM (%)

smi=Cc1nc2c(cnn2-c2ccccc2)c(=O)n1-c1ccc(N)cc1 qualifier_operator== value=48.2
smi=Cc1ccc(C(=O)Nc2ccc(-n3c(C)nc4c(cnn4-c4ccccc4)c3=O)cc2)cc1 qualifier_operator== value=41.6
smi=Cc1nc2c(cnn2-c2ccccc2)c(=O)n1-c1ccc(/N=C2\C(=O)Nc3ccccc32)cc1 qualifier_operator== value=36.5
smi=CC(=O)Nc1ccc(-n2c(C)nc3c(cnn3-c3ccccc3)c2=O)cc1 qualifier_operator== value=47.5
smi=Cc1nc2c(cnn2-c2ccccc2)c(=O)n1-c1ccc(NC(=O)c2ccco2)cc1 qualifier_operator== value=26.1
smi=Cc1nc2c(cnn2-c2ccccc2)c(=O)n1-c1ccc(NC(=O)c2ccc(Cl)cc2)cc1 qualifier_operator== value=52.9
smi=COc1ccc(/C=C/C(=O)c2ccc(-n3c(C)nc4c(cnn4-c4ccccc4)c3=O)cc2)cc1 qualifier_operator=> value=100
smi=Cc1nc2c(cnn2-c2ccccc2)c(=O)n1-c1ccc(N2C(=O)c3ccccc3C2=O)cc1 qualifier_operator=< value=15
smi=Cc1nc2c(cnn2-c2ccccc2)c(=O)n1-c1ccc(NC(=O)c2ccc([N+](=O)[O-])cc2)cc1 qualifier_operator== value=47.7

====

test system: SK-MEL-28; test: Antiproliferative activity against human SK-MEL-28 cells assessed as cell growth inhibition at 10 uM incubated for 48 hrs by SRB assay relative to control; format: functional; settings: read-out: GI
REPORTED_PROPERTY: inhibition of growth at 10 µM

smi=Cc1nc2c(cnn2-c2ccccc2)c(=O)n1-c1ccc(N2C(=O)C=CC2=O)cc1 value="< 15%"
smi=Cc1nc2c(cnn2-c2ccccc2)c(=O)n1-c1ccc(NC(=O)c2ccc(Cl)cc2)cc1 value=17.1%
smi=Cc1nc2c(cnn2-c2ccccc2)c(=O)n1-c1ccc(NC(=O)c2ccccc2)cc1 value="< 15%"
smi=Cc1ccc(C(=O)Nc2ccc(-n3c(C)nc4c(cnn4-c4ccccc4)c3=O)cc2)cc1 value=19.3%
smi=Cc1nc2c(cnn2-c2ccccc2)c(=O)n1-c1ccc(NC(=O)c2ccc([N+](=O)[O-])cc2)cc1 value=18.2%
smi=Cc1nc2c(cnn2-c2ccccc2)c(=O)n1-c1ccc(N2C(=O)c3ccccc3C2=O)cc1 value="< 15%"
smi=Cc1nc2c(cnn2-c2ccccc2)c(=O)n1-c1ccc(NC(=O)c2ccc(F)cc2)cc1 value=16.2%
smi=Cc1nc2c(cnn2-c2ccccc2)c(=O)n1-c1ccc(N)cc1 value="< 15%"
smi=Cc1nc2c(cnn2-c2ccccc2)c(=O)n1-c1ccc(/N=C2\C(=O)Nc3ccccc32)cc1 value="< 15%"
smi=Cc1nc2c(cnn2-c2ccccc2)c(=O)n1-c1ccc(NC(=O)c2ccco2)cc1 value="< 15%"
smi=CC(=O)Nc1ccc(-n2c(C)nc3c(cnn3-c3ccccc3)c2=O)cc1 value="< 15%"
smi=COc1ccc(/C=C/C(=O)c2ccc(-n3c(C)nc4c(cnn4-c4ccccc4)c3=O)cc2)cc1 value="< 15%"
